Hey, just so you know, these numbers are from patent US12421253B2.

TGT: KRas^G12S (Homo sapiens, UniProt P01116, G12S)
Construct: […]; biotin (biotinylated)
Sequence (P01116 1-169 isoform P01116-2 G12S): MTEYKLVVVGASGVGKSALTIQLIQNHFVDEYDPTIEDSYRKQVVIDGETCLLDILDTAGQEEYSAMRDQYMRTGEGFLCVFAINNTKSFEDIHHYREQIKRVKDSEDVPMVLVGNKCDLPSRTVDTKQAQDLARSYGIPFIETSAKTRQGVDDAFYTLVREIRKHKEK
ASSAY REMARKS: KRas binding assay (TR-FRET displacement of Cy5 labelled tracer)
ENDPOINT LABEL: IC50 (nM)

{"COMPOUND": "CCc1cccc2cccc(N3CCc4c(nc(OCC56CCCN5CCC6)nc4N4CC(C)CC(C(N)=O)C4)C3)c12 (stereo not drawn)", "TGT": "KRas^G12S (Homo sapiens, UniProt P01116, G12S)", "OBS VALUE": 385}
{"COMPOUND": "CCc1cccc2cccc(N3CCc4c(nc(OCC56CCCN5CCC6)nc4N4CCCn5nc(N)cc5C4)C3)c12", "TGT": "KRas^G12S (Homo sapiens, UniProt P01116, G12S)", "OBS VALUE": 101}
{"COMPOUND": "CCc1cccc2cccc(N3CCc4c(nc(OCC56CCCN5CCC6)nc4NCc4cccnc4-n4cncn4)C3)c12", "TGT": "KRas^G12S (Homo sapiens, UniProt P01116, G12S)", "OBS VALUE": 1870}
